Biological target: hEP4 (Homo sapiens)
Construct: expressed in transfected cells; host or cells: HEK293
Sequence (P35408 whole entry): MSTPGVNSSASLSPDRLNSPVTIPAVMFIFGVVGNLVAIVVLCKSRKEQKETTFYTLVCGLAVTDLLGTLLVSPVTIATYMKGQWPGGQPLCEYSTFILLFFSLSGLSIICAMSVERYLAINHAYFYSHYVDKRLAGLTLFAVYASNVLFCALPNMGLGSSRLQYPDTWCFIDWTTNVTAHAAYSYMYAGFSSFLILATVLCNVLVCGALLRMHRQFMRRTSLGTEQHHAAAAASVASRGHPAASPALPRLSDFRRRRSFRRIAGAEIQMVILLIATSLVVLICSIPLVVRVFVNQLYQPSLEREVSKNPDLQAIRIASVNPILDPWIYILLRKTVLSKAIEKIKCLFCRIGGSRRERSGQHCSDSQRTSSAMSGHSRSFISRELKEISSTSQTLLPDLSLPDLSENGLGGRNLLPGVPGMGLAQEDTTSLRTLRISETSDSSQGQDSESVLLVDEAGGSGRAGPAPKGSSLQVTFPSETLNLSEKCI
Assay: hEP4 cAMP assay
Format: cell-based
Details: HEK293 cells overexpressing hEP4; PGE2 agonist 20 nM; graded per Table 21; read-out: IC50 (nM) EP4 cAMP

| COMPOUND | IC50 |
| --- | --- |
| COc1cc(C(N)=O)cc(-c2ccc(Cc3c(C)sc(C)c3C(=O)NC3CC4(C3)CC(C(=O)O)C4)cc2)c1 (stereo not shown) | < 500 nM |
| O=C(N[C@H]1CC2(C1)C[C@H](C(=O)O)C2)c1csc2ccn(Cc3ccc(-c4ccccc4)cc3)c12 (single isomer, unassigned) [Example 79a] | 500 to 5000 nM |
| Cc1sc(C)c(C(=O)NC2CC3(C2)CC(C(=O)O)C3)c1Cc1ccc(-c2cc(F)cc(CN)c2)cc1 (stereo not shown) | 500 to 5000 nM |
| COc1cc(-c2ccc(Cc3c(C)sc(C)c3C(=O)NC3CC4(C3)CC(C(=O)O)C4)cc2)cc(N2CCC2=O)c1 (stereo not shown) | < 500 nM |
| Cc1sc(C)c(C(=O)NC2CC3(C2)CC(C(=O)O)C3)c1Cc1ccc(-c2ccoc2)cc1 (stereo not shown) | < 500 nM |
| Cc1sc(C)c(C(=O)NC2CC3(C2)CC(C(=O)O)C3)c1Cc1ccc(-c2cc(F)cc(C#N)c2)cc1 (stereo not shown) | < 500 nM |
| COc1cc(F)cc(-c2ccc(Cn3ccc4sc(C)c(C(=O)NC5CC6(C5)CC(C(=O)O)C6)c43)cc2)c1 (stereo not shown) | < 500 nM |

====

Target: hEP2 (Homo sapiens, UniProt P43116)
Construct: expressed in transfected cells; host or cells: HEK293
Sequence (P43116 whole entry): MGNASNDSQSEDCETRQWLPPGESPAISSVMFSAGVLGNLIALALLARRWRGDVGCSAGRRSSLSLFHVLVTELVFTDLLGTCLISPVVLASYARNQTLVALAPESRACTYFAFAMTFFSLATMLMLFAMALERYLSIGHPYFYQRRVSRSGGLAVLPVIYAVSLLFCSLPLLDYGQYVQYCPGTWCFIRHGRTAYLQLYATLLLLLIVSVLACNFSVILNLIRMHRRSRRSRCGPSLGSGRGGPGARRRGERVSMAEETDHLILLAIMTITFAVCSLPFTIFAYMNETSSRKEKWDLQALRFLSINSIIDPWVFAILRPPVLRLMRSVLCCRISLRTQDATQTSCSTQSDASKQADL
Test: hEP2 cAMP assay
Assay type: cell-based
Conditions: HEK293 cells overexpressing hEP2; PGE2 agonist 400 pM; graded per Table 21; read-out: IC50 (nM) EP2 cAMP
REPORTED_ENDPOINT: IC50

| MOLECULE | ENDPOINT_VALUE |
| --- | --- |
| Cc1sc(C)c(C(=O)NC2CC3(C2)CC(C(=O)O)C3)c1Cc1ccc(-c2ccccc2)cc1F (stereo not drawn) [Example 7] | 500 to 5000 nM |
| O=C(NC1CC2(C1)CC(C(=O)O)C2)c1csc2ccn(Cc3ccc(-n4cccn4)cc3)c12 (stereo not drawn) [Example 107] | > 10000 nM |
| Cc1sc(C)c(C(=O)NC2CC3(C2)CC(C(=O)O)C3)c1Nc1ccc(-c2ccccc2)cc1 (stereo not drawn) [Example 75] | > 10000 nM |
| COc1ccc(F)cc1-c1ccc(Cc2c(C)sc(C)c2C(=O)NC2CC3(C2)CC(C(=O)O)C3)cc1 (stereo not drawn) [Example 48] | > 10000 nM |
| COc1cc(OC)cc(-c2ccc(Cn3ccc4scc(C(=O)NC5CC6(C5)CC(C(=O)O)C6)c43)cc2)c1 (stereo not drawn) [Example 89] | < 500 nM |
| COc1ccccc1-c1ccc(Cc2c(C)sc(C)c2C(=O)NC2CC3(C2)CC(C(=O)O)C3)cc1 (stereo not drawn) [Example 24] | > 10000 nM |
| Cc1sc(C)c(C(=O)NC2CC3(C2)CC(C(=O)O)C3)c1Cc1ccc(-c2cc(F)cc(C(N)=O)c2)cc1 (stereo not drawn) [Example 57] | 500 to 5000 nM |
| O=C(NC1CC2(C1)CC(C(=O)O)C2)c1csc2ccn(Cc3ccc(-c4ccccc4)cc3)c12 (stereo not drawn) [Example 79] | < 500 nM |
| O=C(NC1CC2(C1)CC(C(=O)O)C2)c1cscc1Cc1ccc(-c2ccccc2)cc1 (stereo not drawn) [Example 13] | 500 to 5000 nM |
| Cc1sc(C)c(C(=O)NC2CC3(C2)CC(C(=O)O)C3)c1Cc1ccc(-c2ccc(F)cc2)cc1 (stereo not drawn) [Example 69] | 500 to 5000 nM |
| Cc1sc(C)c(C(=O)NC2CC3(C2)CC(C(=O)O)C3)c1Cc1ccc(-c2cc(N)cc(F)c2)cc1 (stereo not drawn) [Example 54] | 500 to 5000 nM |
| O=C(NC12CCC(C(=O)O)(CC1)CC2)c1csc2ccn(Cc3ccc(-c4ccccc4)cc3)c12 [Example 88] | 500 to 5000 nM |
| COc1cc(-c2ccc(Cc3c(C)sc(C)c3C(=O)NC3CC4(C3)CC(C(=O)O)C4)cc2)ccn1 (stereo not drawn) [Example 50] | > 10000 nM |
| Cc1sc(C)c(C(=O)NC2CC3(C2)CC(C(=O)O)C3)c1Cc1ccc(-c2cccc(C(F)(F)F)c2)cc1 (stereo not drawn) [Example 44] | 500 to 5000 nM |
| Cc1sc(C)c(C(=O)N(C)C2CC3(CC(C(=O)O)C3)C2)c1Cc1ccc(-c2ccccc2)cc1 (stereo not drawn) [Example 73] | > 10000 nM |

====

Target: hEP4 (Homo sapiens)
Construct: expressed in transfected cells; host or cells: HEK293
Test: hEP4 cAMP assay
Format: cell-based
Settings: HEK293 cells overexpressing hEP4; PGE2 agonist 20 nM; graded per Table 21; read-out: IC50 (nM) EP4 cAMP

| COMPOUND | IC50 |
| --- | --- |
| Cc1sc(C)c(C(=O)NC2CC3(C2)CC(C(=O)O)C3)c1Cc1ccc(C2CCCCC2)cc1 (stereo not shown) | 5000 to 10000 nM |
| O=C(NC1CC2(C1)CC(C(=O)O)C2)c1c(Cl)sc2ccn(Cc3ccc(-c4ccccc4)cc3)c12 (stereo not shown) | < 500 nM |
| O=C(NC1CC2(C1)CC(C(=O)O)C2)c1csc(C2CC2)c1Cc1ccc(-c2ccccc2)cc1 (stereo not shown) | 500 to 5000 nM |
| Cc1sc(C)c(C(O)c2ccc(-c3ccccc3)cc2)c1C(=O)NC1CC2(C1)CC(C(=O)O)C2 (stereo not shown) | < 500 nM |

====

Target: hEP2 (Homo sapiens, UniProt P43116)
Construct: expressed in transfected cells; host or cells: HEK293
Experiment: hEP2 cAMP assay
Type: cell-based
Details: HEK293 cells overexpressing hEP2; PGE2 agonist 400 pM; graded per Table 21; read-out: IC50 (nM) EP2 cAMP
Each record here notes measured IC50.
REPORTED_ENDPOINT: IC50

| MOLECULE | ENDPOINT_VALUE |
| --- | --- |
| COc1cc(F)cc(-c2ccc(Cc3c(C)sc(C)c3C(=O)N[C@H]3CC4(C3)C[C@H](C(=O)O)C4)cc2)c1 (single isomer, unassigned) [Example 34a] | 5000 to 10000 nM |
| CSc1cc(F)cc(-c2ccc(Cc3c(C)sc(C)c3C(=O)NC3CC4(C3)CC(C(=O)O)C4)cc2)c1 (centres unmarked) | 500 to 5000 nM |
| Cc1sc(C)c(C(=O)NC2CC3(C2)CC(C(=O)O)C3)c1Cc1ccc(Oc2ccccc2)cc1 (centres unmarked) | > 10000 nM |
| Cc1ccccc1-c1ccc(Cc2c(C)sc(C)c2C(=O)NC2CC3(C2)CC(C(=O)O)C3)cc1 (centres unmarked) | > 10000 nM |
| O=C(NC1CC2(C1)CC(C(=O)O)C2)c1csc2ccn(Cc3ccc(-c4cccc(F)c4)cc3)c12 (centres unmarked) | < 500 nM |
| Cc1sc2ccn(Cc3ccc(-c4ccccc4)cc3)c2c1C(=O)N[C@H]1CC2(C1)C[C@H](C(=O)O)C2 (single isomer, unassigned) [Example 80a] | 500 to 5000 nM |
| Cc1sc(C)c(C(=O)NC2CC3(C2)CC(C(=O)O)C3)c1Cc1ccc(-c2cc(F)cc(CO)c2)cc1 (centres unmarked) | 5000 to 10000 nM |
| O=C(NC1CC2(C1)CC(C(=O)O)C2)c1csc2ccn(Cc3ccc(-c4cccnc4)cc3)c12 (centres unmarked) | > 10000 nM |
| Cc1sc(C)c(C(=O)NC2CC3(C2)CC(C(=O)O)C3)c1Cc1ccc(-c2ccccc2)c(N)c1 (centres unmarked) | > 10000 nM |
| COc1ccc(-c2ccc(Cc3c(C)sc(C)c3C(=O)NC3CC4(C3)CC(C(=O)O)C4)cc2)cc1F (centres unmarked) | 5000 to 10000 nM |
| Cc1sc(C)c(C(=O)NC2CC3(C2)CC(C(=O)O)C3)c1Cc1ccc(-c2cc(O)cc(F)c2)cc1 (centres unmarked) | 500 to 5000 nM |
| COc1ccnc(-c2ccc(Cn3ccc4scc(C(=O)NC5CC6(C5)CC(C(=O)O)C6)c43)cc2)c1 (centres unmarked) | 500 to 5000 nM |
| O=C(NC1CC2(C1)CC(C(=O)O)C2)c1csc2ccn(Cc3cnc(-c4ccccc4)nc3)c12 (centres unmarked) | 500 to 5000 nM |
| Cc1sc(C)c(C(=O)NC2CC3(C2)CC(C(=O)O)C3)c1Cc1ccc(-c2cc(F)cc(C3CNC3)c2)cc1 (centres unmarked) | > 10000 nM |
